List of normalized growth values.
Test: chemical genetic growth profiling, strain panel (AID 1159580);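 further: tested at 20 µM; growth read once vehicle control cultures reached saturation at 30 °C; 1 = growth at the plate median or of vehicle wells; lower values mean less growth of the strain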
Settings: S. cerevisiae deletion strains, growth OD, locus YMR205C, strain PFK2 (second series), stronger effect = lower value
Out of some 5,500 compounds screened, about 2,000 (36%) were called active. Inconclusive results (about 18%) are left out. Some of the results follow.
When you answer, write just the number.

Known normalized growth results, listed for orientation:
CCOC(=O)c1sc(S(C)=NC(=O)Nc2ccc(Cl)cc2)c2c1CCC=C2 (centres undefined): 0.951
Clc1cccc(Nc2ncc(-c3ccc4c(c3)OCCCO4)s2)c1: 0.894
Brc1ccc(-c2csc(-c3cccnc3)n2)cc1: 0.719

Moving on to another molecule below.
Task: Report normalized growth for COc1ccc(-c2csc(-c3cccnc3)n2)cc1
Result: 0.907

Data origin, for the record: PubChem BioAssay AID1159580
